Catalogue of compounds with associated zone of inhibition at 1000 µg/mL
Test system: Salmonella typhi (RCMB 0100104)
test details: Inhibition zone, agar cup diffusion
Format: cell-based
measurement conditions: Salmonella enterica, 24 h, read-out: inhibition zones (IZ) S. typhi
The figure you give is taken to be in mm; do not add the unit.

{"compound": "Cc1ccnc(NS(=O)(=O)c2ccc(/N=N/c3ccc(O)c(C(=O)N4CCOCC4)c3)cc2)n1 [Compound 5o]", "experimental system": "Salmonella typhi (RCMB 0100104)", "endpoint unit": "mm", "recorded number": 18}

Note to self: zone of inhibition at 1000 µg/mL recorded for O=C(NCc1ccccc1)c1cc(/N=N/c2ccc(S(=O)(=O)Nc3ncccn3)cc2)ccc1O [Compound 5g] was 13

zone of inhibition at 1000 µg/mL recorded for this compound, CCCCNC(=O)c1cc(/N=N/c2ccc(S(=O)(=O)Nc3ncccn3)cc2)ccc1O [Compound 5c] , is 13

# zone of inhibition at 1000 µg/mL of O=C(c1cc(/N=N/c2ccc(S(=O)(=O)Nc3ncccn3)cc2)ccc1O)N1CCCCC1 [Compound 5j] = 15

Quick note, zone of inhibition at 1000 µg/mL for NS(=O)(=O)c1ccc(/N=N/c2ccc(O)c(C(=O)N3CCCCC3)c2)cc1 [Compound 5h] landed at 18

Recorded result, CCCCNC(=O)c1cc(/N=N/c2ccc(S(N)(=O)=O)cc2)ccc1O [Compound 5a] , zone of inhibition at 1000 µg/mL: 15

Documented zone of inhibition at 1000 µg/mL of CCCCNC(=O)c1cc(/N=N/c2ccc(S(=O)(=O)Nc3nccc(C)n3)cc2)ccc1O [Compound 5d] : 16

Entry O=C(NCc1ccccc1)c1cc(/N=N/c2ccc(S(=O)(=O)Nc3nccs3)cc2)ccc1O [Compound 5f] — recorded zone of inhibition at 1000 µg/mL = 16

zone of inhibition at 1000 µg/mL measured on Cc1ccnc(NS(=O)(=O)c2ccc(/N=N/c3ccc(O)c(C(=O)N4CCCCC4)c3)cc2)n1 [Compound 5k] = 14

Form: compound = CCCCNC(=O)c1cc(/N=N/c2ccc(S(=O)(=O)Nc3nccs3)cc2)ccc1O [Compound 5b] ; zone of inhibition at 1000 µg/mL = 14

So for O=C(c1cc(N=Nc2ccc(S(=O)(=O)Nc3nccs3)cc2)ccc1O)N1CCOCC1 [Compound 5m] , the logged zone of inhibition at 1000 µg/mL turned out to be 16

response.value for C[C@H]1COc2c(N3CCN(C)CC3)c(F)cc3c(=O)c(C(=O)O)cn1c23 [Levofloxacin, levofloxacin, reference compound] (field: zone of inhibition at 1000 µg/mL) = 11
